System: GLUT-1
testMethodNotes: Caco-2 monolayer efflux assay, Apparent Permeability (Papp), with or without GLUT-1 inhibitor phloretin
Assay type: in vitro ADME, Human
statedConditions: human, with phloretin (GLUT-1 inhibitor), in Phloretin, read-out: Papp A → B, Phloretin
Let's look at some compounds and their measured Papp A→B.
Answer in nm/s, number only, no unit symbol.

| compound | unitName | Papp A→B |
| --- | --- | --- |
| COc1ccc(-c2noc(CC(=O)OCC3OC(O)C(O)C(O)C3O)c2-c2ccc(OC)cc2)cc1 (centres unmarked) | nm/s | 368 |

With those in mind, consider the next compound.
query: What Papp A→B appears in the records for this compound with GLUT-1? COc1ccc(-c2noc(CC(=O)NCCCCCCCCCCC(=O)OCC3OC(O)C(O)C(O)C3O)c2-c2ccc(OC)cc2)cc1 (centres unmarked)
result: 292

====

Let's look at some compounds and their measured inhibition at 50 µM.
targetDesc: COX-2 (Homo sapiens, UniProt P35354)
Sequence (P35354 18-604 limits assumed): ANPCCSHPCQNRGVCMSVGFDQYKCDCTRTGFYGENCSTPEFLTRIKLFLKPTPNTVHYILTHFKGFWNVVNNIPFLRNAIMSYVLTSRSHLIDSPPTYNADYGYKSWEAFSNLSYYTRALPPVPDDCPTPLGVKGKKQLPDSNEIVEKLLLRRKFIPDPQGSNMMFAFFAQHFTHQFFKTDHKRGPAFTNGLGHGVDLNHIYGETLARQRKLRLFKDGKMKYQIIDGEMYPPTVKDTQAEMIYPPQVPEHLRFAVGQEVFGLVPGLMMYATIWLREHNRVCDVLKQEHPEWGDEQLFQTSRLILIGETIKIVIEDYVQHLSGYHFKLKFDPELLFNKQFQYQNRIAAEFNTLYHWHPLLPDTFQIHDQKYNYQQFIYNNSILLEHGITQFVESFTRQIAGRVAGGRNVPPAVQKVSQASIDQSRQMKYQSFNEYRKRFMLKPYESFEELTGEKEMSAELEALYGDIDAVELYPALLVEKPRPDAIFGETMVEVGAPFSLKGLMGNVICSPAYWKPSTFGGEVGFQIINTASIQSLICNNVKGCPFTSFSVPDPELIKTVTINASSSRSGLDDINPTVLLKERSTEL
testMethodNotes: colorimetric COX Inhibitor screening Assay (peroxidase component, oxidized TMPD at 590 nm)
Format: biochemical
statedConditions: at 50 μM, the highest concentration tested
Answer in %, number only, no unit symbol.

| compound | unitName | numericValue |
| --- | --- | --- |
| COc1ccc(-c2noc(CC(=O)OCC3OC(O)C(O)C(O)C3O)c2-c2ccc(OC)cc2)cc1 (stereo not shown) | % | 87 |
| COc1ccc(-c2noc(CC(=O)NCCCCC(=O)OC[C@H]3OC(O)[C@H](O)[C@@H](O)[C@H]3O)c2-c2ccc(OC)cc2)cc1 (mixture of isomers) | % | 24 |

query: What measured inhibition at 50 µM goes with COc1ccc(-c2noc(CC(=O)O)c2-c2ccc(OC)cc2)cc1 ?
result: 38

query: What measured inhibition at 50 µM goes with COc1ccc(-c2noc(CC(=O)NCCCCCCCCCCC(=O)OCC3OC(O)C(O)C(O)C3O)c2-c2ccc(OC)cc2)cc1 (stereo not shown) ?
result: 64

====

These records show IC50 for UniProt:P35354.

Examples from the recorded data:
| compound | result |
| --- | --- |
| COc1ccc(-c2noc(CC(=O)NCCCCCCCCCCC(=O)OCC3OC(O)C(O)C(O)C3O)c2-c2ccc(OC)cc2)cc1 (stereo not drawn) [GALMOF11] | 0.27 µM |
| COc1ccc(-c2noc(CC(=O)OCC3OC(O)C(O)C(O)C3O)c2-c2ccc(OC)cc2)cc1 (stereo not drawn) [GALMOF0] | 3.1 µM |

query: What measured IC50 goes with COc1ccc(-c2noc(CC(=O)NCCCCC(=O)OC[C@H]3OC(O)[C@H](O)[C@@H](O)[C@H]3O)c2-c2ccc(OC)cc2)cc1 (mixture of isomers) [GALMOF5] ?
result: > 50 µM

====

Tested on: GLUT-1
testMethodNotes: Caco-2 monolayer efflux assay, Apparent Permeability (Papp), with or without GLUT-1 inhibitor phloretin
Format: in vitro ADME, Human
statedConditions: human, with phloretin 100 mM (GLUT-1 inhibitor), in the presence of 100 mM Phloretin, read-out: Papp B → A, Phloretin
parameter: Papp B→A (×10⁻⁶ cm/s)
Answer in ×10⁻⁶ cm/s, number only, no unit symbol.

query: What measured Papp B→A goes with COc1ccc(-c2noc(CC(=O)NCCCCC(=O)OC[C@H]3OC(O)[C@H](O)[C@@H](O)[C@H]3O)c2-c2ccc(OC)cc2)cc1 (mixture of isomers) ?
result: 47.2
